# system: human TRPM8 (Homo sapiens)
# Construct: expressed in transfected cells; host or cells: CHO (p658 mammalian expression vector)
# Sequence (Q7Z2W7 whole entry): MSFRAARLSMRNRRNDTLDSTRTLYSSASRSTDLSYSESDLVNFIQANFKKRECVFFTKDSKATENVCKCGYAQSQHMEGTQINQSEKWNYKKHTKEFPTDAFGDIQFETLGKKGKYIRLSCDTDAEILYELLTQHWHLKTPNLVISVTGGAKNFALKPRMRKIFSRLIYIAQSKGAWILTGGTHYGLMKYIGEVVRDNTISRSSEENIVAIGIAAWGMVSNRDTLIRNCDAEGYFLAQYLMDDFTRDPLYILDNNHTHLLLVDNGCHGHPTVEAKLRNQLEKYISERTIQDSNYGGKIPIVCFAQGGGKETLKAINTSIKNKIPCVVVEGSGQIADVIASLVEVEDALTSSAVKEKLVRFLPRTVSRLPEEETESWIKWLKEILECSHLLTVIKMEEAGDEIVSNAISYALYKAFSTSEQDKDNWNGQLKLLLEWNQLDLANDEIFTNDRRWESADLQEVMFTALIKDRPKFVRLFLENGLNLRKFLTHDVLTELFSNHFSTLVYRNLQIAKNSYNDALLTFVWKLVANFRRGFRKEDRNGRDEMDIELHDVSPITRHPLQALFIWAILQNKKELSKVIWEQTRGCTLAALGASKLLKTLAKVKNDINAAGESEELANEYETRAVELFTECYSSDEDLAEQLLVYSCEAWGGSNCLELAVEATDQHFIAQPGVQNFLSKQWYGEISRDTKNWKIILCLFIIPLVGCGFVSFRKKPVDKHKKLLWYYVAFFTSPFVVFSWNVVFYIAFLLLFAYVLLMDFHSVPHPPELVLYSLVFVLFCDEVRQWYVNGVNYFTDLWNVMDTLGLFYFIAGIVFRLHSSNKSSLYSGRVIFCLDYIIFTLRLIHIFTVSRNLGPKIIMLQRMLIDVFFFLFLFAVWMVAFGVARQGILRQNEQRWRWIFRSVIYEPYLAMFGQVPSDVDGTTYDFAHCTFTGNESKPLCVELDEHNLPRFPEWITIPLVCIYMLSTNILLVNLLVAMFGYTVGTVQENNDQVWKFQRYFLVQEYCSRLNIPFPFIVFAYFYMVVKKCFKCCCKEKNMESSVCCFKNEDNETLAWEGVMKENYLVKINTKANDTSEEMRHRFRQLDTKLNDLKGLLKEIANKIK
# assay.overview: In vitro human TRPM8 fluorescence calcium flux assay (recombinant CHO cells, Fluo4-AM, FDSS6000)
# Format: cell-based
# run.conditions: recombinant CHO cells expressing human TRPM8; menthol-related EC50, normalized to 100 μM menthol
Structures can show the parent of a compound that is named as a salt.
Could you please report measured EC50 for the items listed next?
Output spec: scalar in nM, unitless text.

molecule COc1ccccc1CCNC(=O)[C@]1(O)C[C@H](C)CC[C@H]1C(C)C , EC50 observed: 23.8

Please fill in: EC50 reported for COCCOCCOCCOc1cccc(CCNC(=O)[C@]2(O)C[C@H](C)CC[C@H]2C(C)C)c1 = 110

Reported EC50 of CC(C)[C@@H]1CC[C@@H](C)C[C@@]1(O)C(=O)NCC(=O)Oc1ccccc1 : 9

# EC50 (molecule: CC(C)[C@@H]1CC[C@@H](C)C[C@@]1(O)C(=O)NCCc1cccc(C#N)c1 ) is 13.5

# EC50 (molecule: CC(C)[C@@H]1CC[C@@H](C)C[C@@]1(O)C(=O)NCCc1cccc(C(=O)OCCO)c1 ) is 65.1

CC(C)[C@@H]1CC[C@@H](C)C[C@@]1(O)C(=O)NCCc1cc(O)ccc1Br yielded EC50 of 9.7

Form: molecule = CC(C)[C@@H]1CC[C@@H](C)C[C@@]1(O)C(=O)NCCc1cccc(CCC(=O)O)c1 ; EC50 = 982

EC50 for COc1ccc2c(c1)CCC2CNC(=O)[C@]1(O)C[C@H](C)CC[C@H]1C(C)C (stereo partly shown) is 310

The reported EC50 of the molecule CC(C)[C@@H]1CC[C@@H](C)C[C@@]1(O)C(=O)NCCc1ccccc1OCCN was 0.3

Query Cc1cccc([C@H](O)CNC(=O)[C@]2(O)C[C@H](C)CC[C@H]2C(C)C)c1 yields EC50 of 11.9

Value of measured EC50 for the entry CC(C)[C@@H]1CC[C@@H](C)C[C@@]1(O)C(=O)NCC1(O)CCc2ccccc21 (single isomer, unassigned) [Example 176] : 1.1

Briefly, EC50 measured for CC(C)[C@@H]1CC[C@@H](C)C[C@@]1(O)C(=O)NC[C@@H](OCC(=O)O)c1ccccc1 : 102

Per the records, this molecule ( COC[C@H](NC(=O)[C@]1(O)C[C@H](C)CC[C@H]1C(C)C)C(O)c1ccccc1 (stereo in doubt) ) has EC50 equal to 7510

The recorded EC50 for entry CC(C)[C@@H]1CC[C@@H](C)C[C@@]1(O)C(=O)NCC(=O)Nc1ccc(O)cc1 equals 56.7

// recorded EC50 for CC(C)[C@@H]1CC[C@@H](C)C[C@@]1(O)C(=O)N[C@@H](CO)Cc1ccc(O)cc1 : 37.1

# EC50 of COc1ccc(C(=O)CNC(=O)[C@]2(O)C[C@H](C)CC[C@H]2C(C)C)cc1 = 18.7

Lab book: EC50 of CC(C)[C@@H]1CC[C@@H](C)C[C@@]1(O)C(=O)NCC1OC(=O)c2ccccc21 (mixture of isomers) [Example 18] noted as 757

Lab book: EC50 of COc1cccc(C(F)(F)CNC(=O)[C@]2(O)C[C@H](C)CC[C@H]2C(C)C)c1 noted as 76.2

Noted for CC(C)[C@@H]1CC[C@@H](C)C[C@@]1(O)C(=O)NCC(NC(=O)[C@H](C)N)c1ccccc1 (single isomer, unassigned) [Example 181] : its EC50 reads 22.5

Form: molecule = CC(C)[C@@H]1CC[C@@H](C)C[C@@]1(O)C(=O)NCCc1ccccc1OC[C@H](O)CO ; EC50 = 7.8

Entry CC(C)[C@@H]1CC[C@@H](C)C[C@@]1(O)C(=O)NCC(F)(F)c1ccccc1 ; EC50 = 2.8

Measured EC50 of CC(C)[C@@H]1CC[C@@H](C)C[C@@]1(O)C(=O)NCCO : 1640

The recorded EC50 for entry CC(C)[C@@H]1CC[C@@H](C)C[C@@]1(O)C(=O)NCCc1ccc(O)cc1 equals 17.8

Note to self: EC50 recorded for COc1ccc(C(=O)CNC(=O)[C@]2(O)C[C@H](C)CC[C@H]2C(C)C)c(OC)c1 was 110

The reported EC50 of the molecule CC(C)OC(=O)CNC(=O)[C@]1(O)C[C@H](C)CC[C@H]1C(C)C was 226

molecule COc1cccc(CCNC(=O)[C@]2(O)C[C@H](C)CC[C@H]2C(C)C)c1OC , EC50 observed: 786

For this molecule ( CC(CNC(=O)[C@]1(O)C[C@H](C)CC[C@H]1C(C)C)c1ccccc1 (stereo partly shown) ), measured EC50 is 42.4

Query COC(=O)c1ccc(CCNC(=O)[C@]2(O)C[C@H](C)CC[C@H]2C(C)C)cc1 yields EC50 of 211

// recorded EC50 for CC(C)[C@@H]1CC[C@@H](C)C[C@@]1(O)C(=O)NCCc1nc2ccccc2[nH]1 : 1510

The molecule listed as CC(C)[C@@H]1CC[C@@H](C)C[C@@]1(O)C(=O)NCC(C(=O)OCC(C)(C)N)c1ccccc1 (stereo partly shown) [Example 73, hydrochloride] has a reported EC50 of 4

The recorded EC50 for entry CC(C)[C@@H]1CC[C@@H](C)C[C@@]1(O)C(=O)NC1CCOC1=O (stereo partly shown) equals 1580
